biological target: Aβ (1-42) (Homo sapiens, UniProt P05067); test: Binding of 125I-labeled GST-ABAD or ABAD mutants to immobilized Aβ (1-42); design: key: +: Specific binding comparable to that observed with wild type ABAD; −: No observed specific binding; conditions: 125I-labeled GST-ABAD or ABAD to immobilized Aβ (1-42)
Sequence (P05067 672-713): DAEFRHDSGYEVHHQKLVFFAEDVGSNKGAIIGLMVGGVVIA

[
  {
    "molecule": "GST-ABAD(1-186): GST-ABAD truncation mutant, residues 1-186 (protein, left off: a dimerising Fc or GST) MAAACRSVKGLVAVITGGASGLGLATAERLVGQGASAVLLDLPNSGGEAQAKKLGNNCVFAPADVTSEKDVQTALALAKGKFGRVDVAVNCAGIAVASKTYNLKKGQTHTLEDFQRVLDVNLMGTFNVIRLVAGEMGQNEPDQGGQRGVIINTASVAAFEGQVGQAAYSASKGGIVGMTLPIARDL",
    "Aβ Binding": "+"
  },
  {
    "molecule": "GST-ABAD(159-261): GST-ABAD truncation mutant, residues 159-261 (protein, left off: a dimerising Fc or GST) FEGQVGQAAYSASKGGIVGMTLPIARDLAPIGIRVMTIAPGLFGTPLLTSLPEKVCNFLASQVPFPSRLGDPAEYAHLVQAIIENPFLNGEVIRLDGAIRMQP",
    "Aβ Binding": "−"
  },
  {
    "molecule": "GST-ABAD(1-158): GST-ABAD truncation mutant, residues 1-158 (protein, left off: a dimerising Fc or GST) MAAACRSVKGLVAVITGGASGLGLATAERLVGQGASAVLLDLPNSGGEAQAKKLGNNCVFAPADVTSEKDVQTALALAKGKFGRVDVAVNCAGIAVASKTYNLKKGQTHTLEDFQRVLDVNLMGTFNVIRLVAGEMGQNEPDQGGQRGVIINTASVAA",
    "Aβ Binding": "+"
  }
]
